Assay: Pharmacokinetic study
Format: in vivo
Conditions: rat, plasma, po; SD rats, p.o. 10 mg/kg
ASSAY METRIC: Cmax

CN(C)Cc1cccc(Nc2ncc(Cl)c(-c3csc(C(=O)NN4CCOCC4)c3)n2)c1 yielded Cmax of 53.7 ng/mL

* * *

Molecular target: ERK1 (Homo sapiens)
Sequence (P27361 whole entry): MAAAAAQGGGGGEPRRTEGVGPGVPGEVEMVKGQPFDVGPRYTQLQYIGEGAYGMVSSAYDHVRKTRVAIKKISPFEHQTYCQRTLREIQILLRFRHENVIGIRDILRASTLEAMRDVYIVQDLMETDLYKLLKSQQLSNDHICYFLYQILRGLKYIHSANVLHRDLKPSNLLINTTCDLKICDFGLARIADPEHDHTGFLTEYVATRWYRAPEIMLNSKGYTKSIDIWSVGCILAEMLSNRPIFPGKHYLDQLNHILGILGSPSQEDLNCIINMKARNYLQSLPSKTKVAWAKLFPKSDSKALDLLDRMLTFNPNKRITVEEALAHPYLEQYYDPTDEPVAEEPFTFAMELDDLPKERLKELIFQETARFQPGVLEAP
Test: ADP-Glo kinase assay
Assay type: biochemical
Details: 500 nM
Entries and their measured Enzyme inhibitory activity (500 nM, %) ERK1 follow.
Give the value in % but do not write % after it.

In [3]: df
Out[3]:
                                   compound  endpoint_value
0  COc1ccc(NC(=O)c2cc(-c3nc(Nc4ccn(C)n4)ncc3Cl)cs2)cc1 [9a]           41.09
1  COc1ccc(NC(=O)c2cc(-c3nc(Nc4ccnn4C)ncc3Cl)cs2)cc1OC [6ag]           92.13
2  Cn1nccc1Nc1ncc(Cl)c(-c2csc(C(=O)N[C@H]3CC[C@H](O)CC3)c2)n1 [6f]           89.31
3  Cn1nccc1Nc1ncc(Cl)c(-c2csc(C(=O)Nc3cccc(N)c3)c2)n1 [6p]           86.34
4  CN(C)Cc1cccc(Nc2ncc(Cl)c(-c3csc(C(=O)Nc4ccnn4C)c3)n2)c1 [18k]           45.23
5  Cn1nccc1Nc1ncc(Cl)c(-c2csc(C(=O)Nc3cccc(Br)c3)c2)n1 [6l]           47.12
6  COc1ccc(NC(=O)c2cc(-c3nc(Nc4cccc(N(C)C)c4)ncc3Cl)cs2)cc1 [9h]           77.02
7  Cn1nccc1Nc1ncc(Cl)c(-c2csc(C(=O)NC3CCSCC3)c2)n1 [6d]           93.12

Cn1nccc1Nc1ncc(Cl)c(-c2csc(C(=O)Nc3cccc(Cl)c3)c2)n1 [6k] yielded Enzyme inhibitory activity (500 nM, %) ERK1 of 59.39

CCc1cccc(NC(=O)c2cc(-c3nc(Nc4ccnn4C)ncc3Cl)cs2)c1 [6r] yielded Enzyme inhibitory activity (500 nM, %) ERK1 of 88.34

* * *

Test system: MDA-MB-468 cells
Assay: MTT cell viability assay
Format: cell-based
Conditions: 10 μM
Assign class by Anti-proliferative activity (10 μM, %) MDA-MB-468: not lower than 30% means Y; lower than 30% means N.

                                   compound  group_label
0  Cn1nccc1Nc1ncc(Cl)c(-c2csc(C(=O)Nc3cccc(OC(F)(F)F)c3)c2)n1            Y
1  Cn1nccc1Nc1ncc(Cl)c(-c2csc(C(=O)N[C@H]3CC[C@H](O)CC3)c2)n1            Y
2  CN1CCN(C(=O)c2cc(-c3nc(Nc4ccnn4C)ncc3Cl)cs2)CC1            N
3  Cc1cccc(NC(=O)c2cc(-c3nc(Nc4ccnn4C)ncc3Cl)cs2)c1            Y
4  CN(C)Cc1cccc(Nc2ncc(Cl)c(-c3csc(C(=O)NN4CCN(C)CC4)c3)n2)c1 [18n]            Y

Determine whether this compound has Anti-proliferative activity (10 μM, %) MDA-MB-468 no lower than 30%: Cn1nccc1Nc1ncc(Cl)c(-c2csc(C(=O)NC3CCSCC3)c2)n1
N

Determine whether this compound has Anti-proliferative activity (10 μM, %) MDA-MB-468 no lower than 30%: COc1ccc(NC(=O)c2cc(-c3nc(Nc4cccc(N(C)C)c4)ncc3Cl)cs2)cc1
N

Determine whether this compound has Anti-proliferative activity (10 μM, %) MDA-MB-468 no lower than 30%: COc1ccc(NC(=O)c2cc(-c3nc(Nc4ccnn4C)ncc3Cl)cs2)cc1OC
N

* * *

Assay: Caco-2 bidirectional transport
Assay type: in vitro ADME
Conditions: human; Caco-2, 30 min; read-out: BL→AP Papp
ASSAY METRIC: Papp B→A at 30 min (×10⁻⁶ cm/s)
Give the value in ×10⁻⁶ cm/s but do not write ×10⁻⁶ cm/s after it.

CN(C)Cc1cccc(Nc2ncc(Cl)c(-c3csc(C(=O)NN4CCOCC4)c3)n2)c1 [SKLB-D18] yielded Papp B→A at 30 min of 0.011

* * *

Tested on: MDA-MB-468 cells
Assay: MTT cell viability assay
Assay type: cell-based
Conditions: 10 μM
ASSAY METRIC: Anti-proliferative activity (10 μM, %) MDA-MB-468
Give the value in % but do not write % after it.

Cn1nccc1Nc1ncc(Cl)c(-c2csc(C(=O)NCc3cnccn3)c2)n1 yielded Anti-proliferative activity (10 μM, %) MDA-MB-468 of 7.43

Cn1nccc1Nc1ncc(Cl)c(-c2csc(C(=O)Nc3ccc(C(F)(F)F)cc3)c2)n1 yielded Anti-proliferative activity (10 μM, %) MDA-MB-468 of 9.83

CN(C)Cc1cccc(Nc2ncc(Cl)c(-c3csc(C(=O)Nc4cccc(N(C)C)c4)c3)n2)c1 [18d] yielded Anti-proliferative activity (10 μM, %) MDA-MB-468 of 50.45

* * *

Target: UniProt Q13164
Assay: ADP-Glo kinase assay
Assay type: biochemical
Conditions: 500 nM
Sequence (Q13164 whole entry): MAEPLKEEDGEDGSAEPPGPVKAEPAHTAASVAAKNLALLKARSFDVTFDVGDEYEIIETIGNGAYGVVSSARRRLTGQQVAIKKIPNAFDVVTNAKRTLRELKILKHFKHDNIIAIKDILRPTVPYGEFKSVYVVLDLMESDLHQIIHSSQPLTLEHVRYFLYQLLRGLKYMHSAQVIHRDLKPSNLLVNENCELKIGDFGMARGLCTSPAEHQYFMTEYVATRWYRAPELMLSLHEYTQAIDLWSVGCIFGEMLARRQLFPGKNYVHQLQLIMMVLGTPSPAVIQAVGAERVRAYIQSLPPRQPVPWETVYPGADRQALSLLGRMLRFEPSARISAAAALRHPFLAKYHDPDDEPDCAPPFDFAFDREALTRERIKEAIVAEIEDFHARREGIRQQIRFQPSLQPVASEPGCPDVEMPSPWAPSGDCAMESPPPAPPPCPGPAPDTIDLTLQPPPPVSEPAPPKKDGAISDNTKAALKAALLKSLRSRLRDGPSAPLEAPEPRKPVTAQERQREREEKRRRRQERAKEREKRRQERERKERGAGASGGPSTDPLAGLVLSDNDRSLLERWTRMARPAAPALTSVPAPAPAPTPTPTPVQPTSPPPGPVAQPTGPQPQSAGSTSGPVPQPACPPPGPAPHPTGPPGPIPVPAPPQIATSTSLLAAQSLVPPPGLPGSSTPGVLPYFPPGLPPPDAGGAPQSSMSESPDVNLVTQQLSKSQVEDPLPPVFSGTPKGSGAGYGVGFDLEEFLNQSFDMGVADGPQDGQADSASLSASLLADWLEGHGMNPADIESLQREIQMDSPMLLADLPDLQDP
Labels assigned by Enzyme inhibitory activity (500 nM, %) ERK5 range: low end = under 40%, middle = from 40% up to 70%, high end = 70% and over

Consider the worked cases shown below.
In [3]: df
Out[3]:
                                   compound  group_label
0  Cn1nccc1Nc1ncc(Cl)c(-c2csc(C(=O)Nc3cccc(C(F)(F)F)c3)c2)n1      low end
1  COc1ccc(NC(=O)c2cc(-c3nc(Nc4ccn(C)n4)ncc3Cl)cs2)cc1      low end
2  Cn1nccc1Nc1ncc(Cl)c(-c2csc(C(=O)Nc3ccc(C(F)(F)F)cc3)c2)n1      low end
3  CN(C)Cc1cccc(Nc2ncc(Cl)c(-c3csc(C(=O)NN4CCN(C)CC4)c3)n2)c1 [18n]     high end

# classify by Enzyme inhibitory activity (500 nM, %) ERK5 band: Cc1cc(NC(=O)c2cc(-c3nc(Nc4ccnn4C)ncc3Cl)cs2)ccn1
high end

# classify by Enzyme inhibitory activity (500 nM, %) ERK5 band: CC(C)Oc1ccc(NC(=O)c2cc(-c3nc(Nc4ccnn4C)ncc3Cl)cs2)cc1
middle

# classify by Enzyme inhibitory activity (500 nM, %) ERK5 band: CCc1cccc(NC(=O)c2cc(-c3nc(Nc4ccnn4C)ncc3Cl)cs2)c1
middle

# classify by Enzyme inhibitory activity (500 nM, %) ERK5 band: Cn1nccc1Nc1ncc(Cl)c(-c2csc(C(=O)Nc3cccc(Cl)c3)c2)n1
low end

# classify by Enzyme inhibitory activity (500 nM, %) ERK5 band: Cn1nccc1Nc1ncc(Cl)c(-c2csc(C(=O)N[C@H]3CC[C@H](O)CC3)c2)n1
low end

# classify by Enzyme inhibitory activity (500 nM, %) ERK5 band: CN(C)Cc1cccc(Nc2ncc(Cl)c(-c3csc(C(=O)Nc4cccc(N(C)C)c4)c3)n2)c1 [18d]
high end

# classify by Enzyme inhibitory activity (500 nM, %) ERK5 band: COc1ccc(NC(=O)c2cc(-c3nc(Nc4cccc(N(C)C)c4)ncc3Cl)cs2)cc1
middle

* * *

Entries and their measured Enzyme inhibitory activity (500 nM, %) ERK2 follow.
Target: ERK2 (Homo sapiens)
Sequence (P28482 whole entry): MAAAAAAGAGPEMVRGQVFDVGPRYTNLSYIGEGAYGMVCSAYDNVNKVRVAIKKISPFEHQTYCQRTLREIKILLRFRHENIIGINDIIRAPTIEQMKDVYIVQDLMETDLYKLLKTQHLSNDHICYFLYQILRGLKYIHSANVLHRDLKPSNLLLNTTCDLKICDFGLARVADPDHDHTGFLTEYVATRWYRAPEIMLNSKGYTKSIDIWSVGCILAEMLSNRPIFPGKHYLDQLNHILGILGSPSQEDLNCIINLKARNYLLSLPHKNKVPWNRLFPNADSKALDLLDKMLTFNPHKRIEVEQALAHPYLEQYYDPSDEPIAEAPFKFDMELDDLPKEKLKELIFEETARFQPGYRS
Experiment: ADP-Glo kinase assay
Format: biochemical
Details: 500 nM
Give the value in % but do not write % after it.

In the examples that follow, each entry is paired with its recorded Enzyme inhibitory activity (500 nM, %) ERK2.
                         structure_notation  readout_unit  endpoint_value
0  COc1ccc(NC(=O)c2cc(-c3nc(Nc4ccnn4C)ncc3Cl)cs2)cc1OC             %           94.53
1  Cc1cc(NC(=O)c2cc(-c3nc(Nc4ccnn4C)ncc3Cl)cs2)ccn1             %           72.75
2  CC(C)Oc1ccc(NC(=O)c2cc(-c3nc(Nc4ccnn4C)ncc3Cl)cs2)cc1             %           95.32
3  Cn1nccc1Nc1ncc(Cl)c(-c2csc(C(=O)Nc3cccc(N)c3)c2)n1             %           84.67
4  CSc1ccc(NC(=O)c2cc(-c3nc(Nc4ccnn4C)ncc3Cl)cs2)cc1             %           97.67

COc1ccc(NC(=O)c2cc(-c3nc(Nc4ccccc4)ncc3Cl)cs2)cc1 yielded Enzyme inhibitory activity (500 nM, %) ERK2 of 76.45

COc1ccc(NC(=O)c2cc(-c3nc(Nc4ccn(C)n4)ncc3Cl)cs2)cc1 yielded Enzyme inhibitory activity (500 nM, %) ERK2 of 45.57

* * *

Molecular target: UniProt:Q13164
ASSAY METRIC: Kd (nM)
Give the value in nM but do not write nM after it.

Measured Kd (UniProt:Q13164), entry CN(C)Cc1cccc(Nc2ncc(Cl)c(-c3csc(C(=O)NN4CCOCC4)c3)n2)c1 : 468

Data credit: paper PMC11842588
